# experimental.protocol: Metabolic stability, pooled human liver microsome incubations
# settings: pHLM, 9 min
# Experimental: Total incubation volume was 500 µL. Procedure: Test compound working solutions (50 µM in potassium phosphate buffer (pH 7.4)) were prepared (<1% DMSO). pHLM were thawed and diluted in potassium phosphate buffer (pH 7.4). […] Reactions were quenched in 200 µL ACN spiked with donepezil (IS, 50 ng mL^−1). […] Samples were analysed by UPLC-MS/MS in a 96 deep-well 2 mL plate. […]
measured.endpoint: % parent compound remaining, Average (%)
Dear colleague, please return just the value in %, with no unit written.

Problem: Consider the compound C=CCCCn1cc(C(=O)N[C@H](C(=O)OC)C(C)(C)C)c2ccccc21 [(S)-MDMB-4en-PICA (12)] and give its recorded % parent compound remaining, Average.
Solution: 50.2

Problem: Consider the compound COC(=O)[C@@H](NC(=O)c1nn(Cc2ccc(F)cc2)c2ccccc12)C(C)C [(S)-AMB-FUBINACA (1)] and give its recorded % parent compound remaining, Average.
Solution: 0.2

Continuing:
Problem: Consider the compound C=CCCCn1cc(C(=O)N[C@@H](C(=O)OC)C(C)C)c2ccccc21 [(R)-AMB-4en-PICA (7)] and give its recorded % parent compound remaining, Average.
Solution: 22.6
